Hello, the source for this data is BindingDB's records for patent US20230357253, in case you need it.

target: Stimulator of interferon genes protein (Homo sapiens); assay: WT STING Binding Assay
Quantity Name: IC50

Example cases with answers are listed next.
Cn1nccc1-c1ccc(C(=O)Nc2cc(CCCc3cc(NC(=O)c4ccc(-n5ccnc5)nn4)c(C(=O)O)cc3F)c(F)cc2C(=O)O)nn1 [US20230357253, Compound 207] = > 1000 nM
O=C(Nc1cc(OCc2cc(C(=O)O)c(NC(=O)c3ccc(-n4ccnc4)nn3)cc2F)c(F)cc1C(=O)O)c1ccc(-n2ccnc2)nn1 [US20230357253, Compound 190] = > 1000 nM
O=C(Nc1cc(OCCCOc2ccc(C(=O)O)c(NC(=O)c3ccc4nnnn4n3)c2)ccc1C(=O)O)c1ccc2nnnn2n1 [US20230357253, Compound 28] = > 1000 nM
O=C(Nc1cc(CCCc2ccc(NC(=O)c3ccc4nnnn4n3)c(C(=O)O)c2)ccc1C(=O)O)c1ccc2nnnn2n1 [US20230357253, Compound 13] = > 1000 nM
O=C(Nc1ccc(OCOc2ccc(NC(=O)c3ccc(-n4ccnc4)nn3)c(C(=O)O)c2)cc1C(=O)O)c1ccc(-n2ccnc2)nn1 [US20230357253, Compound 138] = > 1000 nM
O=C(Nc1cc(CCOc2cc(C(=O)O)c(NC(=O)c3ccc(-n4ccnc4)nn3)cc2F)c(F)cc1C(=O)O)c1ccc(-n2ccnc2)nn1 [US20230357253, Compound 141] = < 10 nM
O=C(Nc1cc(CCCc2cc(NC(=O)c3ccc4nnnn4n3)c(C(=O)O)cc2F)c(F)cc1C(=O)O)c1ccc(-n2ccnc2)nn1 [US20230357253, Compound 67] = < 10 nM
COc1nc(C(=O)O)c(NC(=O)c2ccc(-n3ccnc3)nn2)cc1CCCc1cc(NC(=O)c2ccc(-n3ccnc3)nn2)c(C(=O)O)cc1F [US20230357253, Compound 134] = < 10 nM
O=C(Nc1cc(OCCCOc2cc(C(=O)O)c(NC(=O)c3ccc(-n4ccnc4)nn3)cc2F)c(F)cc1C(=O)O)c1ccc(-n2ccnc2)nn1 [US20230357253, Compound 10] = < 10 nM
COc1cc(C(=O)O)c(NC(=O)c2ccc(-n3ccnc3)nn2)cc1CCCc1cc(NC(=O)c2ccc(-n3ccnc3)nn2)c(C(=O)O)cc1F [US20230357253, Compound 59] = < 10 nM

Please turn your attention to the following entry.
# IC50 lookup, item CC(Cc1cc(NC(=O)c2ccc(-n3ccnc3)nn2)c(C(=O)O)cc1F)Cc1cc(NC(=O)c2ccc(-n3ccnc3)nn2)c(C(=O)O)cc1F [US20230357253, Compound 194]
< 10 nM

---

The entries below are paired with their reported IC50.
biological target: Stimulator of interferon genes protein (Homo sapiens, UniProt Q86WV6); experiment: WT STING Binding Assay
Sequence (Q86WV6 whole entry): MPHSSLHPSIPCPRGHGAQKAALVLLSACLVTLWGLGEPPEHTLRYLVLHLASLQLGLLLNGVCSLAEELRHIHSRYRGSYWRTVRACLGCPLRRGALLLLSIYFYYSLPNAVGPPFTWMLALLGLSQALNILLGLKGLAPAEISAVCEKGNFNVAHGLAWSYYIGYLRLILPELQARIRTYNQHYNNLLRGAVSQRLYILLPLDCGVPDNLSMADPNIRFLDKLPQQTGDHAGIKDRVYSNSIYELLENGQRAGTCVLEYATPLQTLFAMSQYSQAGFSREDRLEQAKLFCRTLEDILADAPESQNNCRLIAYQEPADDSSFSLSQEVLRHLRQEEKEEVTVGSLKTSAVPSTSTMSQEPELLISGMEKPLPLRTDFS

O=C(Nc1cc(CCCc2cc(NC(=O)c3ccc(-n4ccnc4)nn3)c(C(=O)O)cc2F)c(F)cc1C(=O)O)c1ccc(-n2ccnc2)nn1 = < 0.01 µM
O=C(Nc1cc(CCCc2cc(NC(=O)c3ccc(-n4ccnc4)nn3)c(C(=O)O)cc2F)c(F)cc1C(=O)O)c1ccc(-c2cn[nH]c2)nn1 = < 0.01 µM
O=C(Nc1cc(OCCc2c(F)cc(NC(=O)c3ccc(-n4ccnc4)nn3)c(C(=O)O)c2F)c(F)cc1C(=O)O)c1ccc(-n2ccnc2)nn1 = < 0.01 µM

# IC50 lookup, item O=C(Nc1cc(CCCc2cc(NC(=O)c3ccc(-n4ccnc4)nn3)c(C(=O)O)cc2F)ccc1C(=O)O)c1ccc(-n2ccnc2)nn1
< 0.01 µM

Next up: O=C(Nc1c(C(=O)O)cc(F)c(OCCCCOc2c(F)cc(C(=O)O)c(NC(=O)c3ccc(-n4ccnc4)nn3)c2F)c1F)c1ccc(-n2ccnc2)nn1
> 1 µM

---

Measured IC50 (Stimulator of interferon genes protein (Homo sapiens, UniProt Q86WV6))

Example cases with answers are listed next.
O=C(Nc1cc(CCCc2cc(C(=O)O)c(NC(=O)c3ccc4nnnn4n3)cc2F)c(F)cc1C(=O)O)c1ccc(-n2ccnc2)nn1 = < 10 nM
O=C(Nc1cc(CCCc2cc(C(=O)O)c(NC(=O)c3ccc(-n4ccnc4)nn3)cc2F)c(F)cc1C(=O)O)c1ccc(-n2ccnc2)nn1 = < 10 nM

Please turn your attention to the following entry.
# IC50 lookup, item O=C(Nc1cc(CCCc2ccc(C(=O)O)c(NC(=O)c3ccc4nnnn4n3)c2)ccc1C(=O)O)c1ccc2nnnn2n1
> 1000 nM

---

target: Stimulator of interferon genes protein (Homo sapiens, UniProt Q86WV6)
The entries below are paired with their reported IC50.

Example cases with answers are listed next.
O=C(Nc1cc(CCOc2cc(NC(=O)c3ccc(-n4ccnc4)nn3)c(C(=O)O)cc2F)c(F)cc1C(=O)O)c1ccc(-c2cn[nH]c2)nn1 [US20230357253, Compound 205] = < 10 nM
O=C(Nc1cc(OCCc2cc(C(=O)O)c(NC(=O)c3ccc(-n4ccnc4)nn3)cc2F)c(F)cc1C(=O)O)c1ccc(-n2ccnc2)nn1 [US20230357253, Compound 144] = < 10 nM
O=C(Nc1cc(F)c(CCCc2cc(NC(=O)c3ccc4nnnn4n3)c(C(=O)O)cc2F)cc1C(=O)O)c1ccc(-n2ccnc2)nn1 [US20230357253, Compound 94] = < 10 nM
O=C(Nc1cc(CCCc2cc(NC(=O)c3ccc(-n4ccnc4)nn3)c(C(=O)O)s2)c(F)cc1C(=O)O)c1ccc(-n2ccnc2)nn1 [US20230357253, Compound 164] = < 10 nM
O=C(Nc1cc(CCCc2ccc(C(=O)O)c(NC(=O)c3ccc4nnnn4n3)c2)ccc1C(=O)O)c1ccc(-n2ccnc2)nn1 [US20230357253, Compound 63] = > 1000 nM
O=C(Nc1cc(CCCc2cc(NC(=O)c3ccc(-n4ccnc4)nn3)c(C(=O)O)cc2Cl)ccc1C(=O)O)c1ccc(-n2ccnc2)nn1 [US20230357253, Compound 66] = < 10 nM
O=C(Nc1cc(CCc2cc(C(=O)O)c(NC(=O)c3ccc(-n4ccnc4)nn3)cc2F)c(F)cc1C(=O)O)c1ccc(-n2ccnc2)nn1 [US20230357253, Compound 180] = > 1000 nM
O=C(Nc1cc(CCOc2cc(NC(=O)c3ccc(-c4cn[nH]c4)nn3)c(C(=O)O)cc2F)c(F)cc1C(=O)O)c1ccc(-c2cn[nH]c2)nn1 [US20230357253, Compound 4] = < 10 nM
O=C(Nc1cc(CCCOc2cc(NC(=O)c3ccc(-n4ccnc4)nn3)c(C(=O)O)cc2F)c(F)cc1C(=O)O)c1ccc(-n2ccnc2)nn1 [US20230357253, Compound 125] = < 10 nM
C=C(Cc1cc(NC(=O)c2ccc(-n3ccnc3)nn2)c(C(=O)O)cc1F)Cc1cc(NC(=O)c2ccc(-n3ccnc3)nn2)c(C(=O)O)cc1F [US20230357253, Compound 199] = < 10 nM

# IC50 lookup, item O=C(Nc1cc(OCCOc2cc(C(=O)O)c(NC(=O)c3ccc(-n4ccnc4)nn3)cc2F)c(F)cc1C(=O)O)c1ccc(-n2ccnc2)nn1 [US20230357253, Compound 191]
< 10 nM

---

biological target: Stimulator of interferon genes protein (Homo sapiens, UniProt Q86WV6)
pIC50: −log10 of the molar value.
Quantity Name: pIC50

Field: pIC50 (Stimulator of interferon genes protein (Homo sapiens, UniProt Q86WV6)). Entry: O=C(Nc1cc(OCCCCOc2cnc(C(=O)O)c(NC(=O)c3ccc(-n4ccnc4)nn3)c2)cnc1C(=O)O)c1ccc(-n2ccnc2)nn1 [US20230357253, Compound 45]
< 6.00

Next up: O=C(Nc1cc(CCc2ccc(C(=O)O)c(NC(=O)c3ccc4nnnn4n3)c2)ccc1C(=O)O)c1ccc2nnnn2n1 [US20230357253, Compound 29]
< 6.00

Next up: O=C(Nc1cc(CCCc2cc(NC(=O)c3ccc(-n4ccnc4)nn3)c(C(=O)O)cc2F)c(F)cc1C(=O)O)c1ccc(N2CCOCC2)nn1 [US20230357253, Compound 212]
< 6.00

---

Measured pIC50 (Stimulator of interferon genes protein (Homo sapiens, UniProt Q86WV6))
pIC50: −log10 of the molar value.

Example cases with answers are listed next.
COc1cc(C(=O)O)c(NC(=O)c2ccc(-n3ccnc3)nn2)cc1OCCCCOc1cc(NC(=O)c2ccc(-n3ccnc3)nn2)c(C(=O)O)cc1OC = < 6.00
O=C(Nc1cc(CC[S+]([O-])c2cc(NC(=O)c3ccc(-n4ccnc4)nn3)c(C(=O)O)cc2F)c(F)cc1C(=O)O)c1ccc(-n2ccnc2)nn1 (stereo unspecified) = < 6.00

# pIC50 lookup, item O=C(Nc1cc(CCOc2cc(C(=O)O)c(NC(=O)c3ccc4nnnn4n3)cc2F)c(F)cc1C(=O)O)c1ccc(-n2ccnc2)nn1
7.00 to 8.00

Next up: O=C(Nc1cc(CCCCc2cc(C(=O)O)c(NC(=O)c3ccc(-n4ccnc4)nn3)cc2F)c(F)cc1C(=O)O)c1ccc(-n2ccnc2)nn1
> 8.00

Next up: COc1cc(C(=O)O)c(NC(=O)c2ccc(-n3ccnc3)nn2)cc1OCCc1cc(C(=O)O)c(NC(=O)c2ccc(-n3ccnc3)nn2)cc1C#N
> 8.00

Next up: O=C(Nc1cc(CCCc2cc(C(=O)O)c(NC(=O)c3ccc4nnnn4n3)cc2F)c(N2CCOCC2)cc1C(=O)O)c1ccc(-n2ccnc2)nn1
< 6.00
